parameter: melting point

Task: Answer with the recorded melting point of CC(=O)c1c[nH]c2nccc(OCC3CCCCC3)c12 only.
Output: > 210 °C

***
Task: Answer with the recorded melting point of O=C(O)c1ccc(-c2nc(NCc3ccc4c(c3)OCO4)c3cc([N+](=O)[O-])sc3n2)cc1 only.
Output: 172 °C

Task: Answer with the recorded melting point of CCCCc1ncc(/C=C(\Cc2cccs2)C(=O)O)n1Cc1ccc(C(=O)O)cc1Cl only.
Output: 234 to 236 °C

Task: Answer with the recorded melting point of COC(OC)(c1ccncc1)C(NC(=O)NCCCc1ccccc1)c1ccc(F)cc1 (stereo not given) only.
Output: 162 to 166 °C

Task: Answer with the recorded melting point of CCOC(=O)c1c(-c2ccccc2)nn2c1-c1ccccc1CC2 only.
Output: 84 to 85 °C

Task: Answer with the recorded melting point of CN(CC(=O)N1c2ccccc2N(Cc2ccccc2)C(=O)[C@H]2CCC[C@H]21)Cc1ccccc1 (relative stereo) only.
Output: 75 to 78 °C

Task: Answer with the recorded melting point of CC(C)(C)C(=O)C(C(c1ccc(Cl)cc1)n1cncn1)n1cncn1 (stereo not given) only.
Output: 157 to 161 °C

Task: Answer with the recorded melting point of CC1=C(S(=O)(=O)c2ccc(C)cc2)C(c2ccc(C)cc2)C(C#N)=C(CC(C)C)N1 (stereo not given) only.
Output: 135 to 137 °C

Task: Answer with the recorded melting point of CCCCOc1ccc(NC(=O)Nc2ccc(S(N)(=O)=O)cc2)cc1 only.
Output: 236 to 239 °C

Task: Answer with the recorded melting point of CC(C)(C)OC(=O)[C@@H](Cc1ccccc1)NC(=O)C1CN(c2ccc(C(N)=S)cc2)C(=O)O1 (stereo not given in full) only.
Output: 167 to 169 °C

====

melting point for assorted compounds

Task: Answer with the recorded melting point of O=C(O)C12CCCC(C1)C1CCC2C1 (stereo not given) only.
Output: 158 to 160 °C

Task: Answer with the recorded melting point of COC(=O)C=CC(C)C1=CCC2C3CC=C4CC(OC(C)=O)CCC4(C)C3CCC12C (stereo not given) only.
Output: 121 to 122 °C

Task: Answer with the recorded melting point of CC(C)(C)[C@@H](NS(=O)(=O)c1ccc(Oc2ccc(Cl)cc2)cc1)C(=O)O only.
Output: 138 to 140 °C

Task: Answer with the recorded melting point of Cc1[nH]c(=O)ccc1-c1cccc(O)c1 only.
Output: 285 to 288 °C

Task: Answer with the recorded melting point of CC(C)(CCC(=O)O)C(=O)Oc1cc(Cl)ccc1Oc1ccc(Cl)cc1Cl only.
Output: 125 to 128 °C

Task: Answer with the recorded melting point of O=C(O)C(CC1CCCC1)c1ccc(-c2cccnc2)cc1 (stereo not given) only.
Output: 136 to 138 °C

Task: Answer with the recorded melting point of CN1C(=O)[C@H](NC(=O)c2ccccc2)N=C(c2ccccc2)c2ccccc21 only.
Output: 224 to 225 °C

Task: Answer with the recorded melting point of Cc1ccc(C=Cc2ccc(C#CC(C)N(O)C(N)=O)o2)cc1 (stereo not given) only.
Output: 174 °C

# context switch: different compound, same melting point
Task: Answer with the recorded melting point of CCOC(=O)CC(=O)c1cccs1 only.
Output: 143 to 145 °C

====

melting point for assorted compounds

Task: Answer with the recorded melting point of CC1CCC2(CC1S(=O)(=O)c1ccccc1)OCCO2 (stereo not given) only.
Output: 105 to 106 °C

Task: Answer with the recorded melting point of Cc1cc(-c2ncn3c(C(F)(F)F)cc(-c4ccc(Cl)c(C)c4)nc23)ccn1 only.
Output: 246 °C

Task: Answer with the recorded melting point of CC12CCC3c4ccc(O)cc4C(=O)C(Sc4ccc(Br)cc4)C3C1CCC2O (stereo not given) only.
Output: 190 to 194 °C

Task: Answer with the recorded melting point of O=c1c2c(Cl)cc(Cl)cc2nc2n1CCCCC2 only.
Output: 110 to 112 °C

# context switch: different compound, same melting point
Task: Answer with the recorded melting point of CCCCCCCCCCCCCCCNC(=O)OCCOCCOCCOC(=O)NCc1ccccn1 only.
Output: 58 to 62 °C

====

parameter: melting point

Guide cases for melting point, answers given:
Task: Answer with the recorded melting point of COC(=O)c1nc(C)c(-c2ccncc2C)s1 only.
Output: 95.5 to 96.3 °C

Task: Answer with the recorded melting point of c1ccc2c(c1)OCCc1c-2n(Cc2ccc(OCCCN3CCCCC3)cc2)c2ccccc12 only.
Output: 129 to 130 °C

Task: Answer with the recorded melting point of Cc1c(O)ccnc1CSc1nc2ccc(F)cc2[nH]1 only.
Output: 232 to 233 °C

Task: Answer with the recorded melting point of Cc1ccc(OC2CCN(C(=O)C(=O)Nc3ccc4[nH]c(=O)sc4c3)CC2)cc1 only.
Output: 215 to 217 °C

Task: Answer with the recorded melting point of COc1cc(CO)c(-c2cccc(OCCC(C)CCCC(C)C)c2)cc1CO (stereo not given) only.
Output: 55 °C

Task: Answer with the recorded melting point of Cc1ccc(CNC(=O)c2sc(N3CCN(Cc4ccccc4)C3=O)nc2C)o1 only.
Output: 138 to 139 °C

Task: Answer with the recorded melting point of NC1=NS(=O)N=C1NCCCNc1ccc(Br)cn1 (stereo not given) only.
Output: 215 to 216 °C

Task: Answer with the recorded melting point of CC(=O)NC[C@H]1CN(c2ccc(C(=O)c3cnc4ncccn34)cc2)C(=O)O1 only.
Output: 257 to 260 °C

Task: Answer with the recorded melting point of COC1c2sccc2C(=O)c2ccccc2C1Br (stereo not given) only.
Output: 103 to 106 °C

# context switch: different compound, same melting point
Task: Answer with the recorded melting point of Cc1cccc(C(=O)NCc2cccc3c2CN(C2CCC(=O)NC2=O)C3=O)c1 (stereo not given) only.
Output: 253 to 255 °C

====

parameter: melting point

Task: Answer with the recorded melting point of CCOC(=O)c1c(CCn2ccnc2)nc2cc(OC)c(OC)cc2c1-c1ccc(OC)c(OC)c1 only.
Output: 173 to 174 °C

***
Task: Answer with the recorded melting point of COc1cc(N)c(S(C)(=O)=O)cc1C(=O)NCC1CCCN1C (stereo not given) only.
Output: 190 to 191 °C

Task: Answer with the recorded melting point of CC12CC3C(=O)OC(C1O)C3(C)O2 (stereo not given) only.
Output: 95 to 96.5 °C

Task: Answer with the recorded melting point of O=S(CC#CCOc1ccccc1)c1ccc(Cl)cc1 (stereo not given) only.
Output: 102 to 103 °C

====

parameter: melting point

Guide cases for melting point, answers given:
Task: Answer with the recorded melting point of CS(=O)(=O)Nc1ccc2c(c1)C(=O)CC1(CCN(CCc3ccc(Cl)nc3)CC1)O2 only.
Output: 213 to 215 °C

Task: Answer with the recorded melting point of OCC(Nc1ccnc2cc(Cl)ccc12)c1ccccc1 (stereo unspecified) only.
Output: 220 to 221 °C

Task: Answer with the recorded melting point of COC(=O)C1Cc2c([nH]c3ccccc23)CN1 (stereo unspecified) only.
Output: 164 to 165 °C

Task: Answer with the recorded melting point of CCn1ncnc1COc1nn2c(-c3c(F)ccc(F)c3F)nncc2c1C(C)(C)C only.
Output: 42 °C

Task: Answer with the recorded melting point of CCCCNC(=O)N1CC(Oc2ccc(C(F)(F)F)cc2)C1 only.
Output: 132 to 134 °C

Task: Answer with the recorded melting point of COC(=O)c1ccc2sccc2c1O only.
Output: 94 to 95 °C

Task: Answer with the recorded melting point of COc1cc(Nc2nccc(-c3nc4ccccc4s3)n2)cc(OC)c1OC only.
Output: 182 to 183 °C

Task: Answer with the recorded melting point of COc1ccc(C(=O)c2ccon2)cc1 only.
Output: 71 to 73 °C

***
Task: Answer with the recorded melting point of COc1ccc(N2CCN(Cc3nn(C(C)=O)c4cc(F)ccc34)CC2)cc1 only.
Output: 94 to 95 °C

Task: Answer with the recorded melting point of CC(=O)c1cc2c(s1)C(C)(C)CCC2(C)C only.
Output: 53 to 55 °C

Task: Answer with the recorded melting point of COC(=O)/C=C/c1c(-c2ccc(F)cc2)cccc1C(C)C only.
Output: 87 to 89 °C

====

melting point for assorted compounds

Guide cases for melting point, answers given:
Task: Answer with the recorded melting point of O=C(O)c1cn(C2CC2)c2c(F)c(N3CCC(n4cnnn4)C3)c(F)cc2c1=O (stereo not given) only.
Output: 268 to 270 °C

Task: Answer with the recorded melting point of O=C(Nc1cccc(F)c1)NC1CCN(S(=O)(=O)c2cccc(C(F)(F)F)c2)CC1 only.
Output: 86 to 88 °C

Task: Answer with the recorded melting point of O=C(Nc1ccccc1)O[C@H]1COC(c2cc3ccccc3[nH]2)=N[C@@H]1c1ccccc1 (racemic) only.
Output: 166 °C

Task: Answer with the recorded melting point of CCCCCCCC(=O)c1ccc(CCC(CC)(COC(C)=O)NC(C)=O)cc1 (stereo not given) only.
Output: 75 to 76 °C

Task: Answer with the recorded melting point of CC(C)C[C@H](NC(=O)N1CCCCCC1)C(=O)N[C@](C)(Cc1ccc(OCc2ccccc2)cc1)C(=O)OC(C)(C)C only.
Output: 46 to 49 °C

***
Task: Answer with the recorded melting point of CCOCc1nc2c(c(C)c(C)n3nnnc23)n1CCNC(=O)N1CCOCC1 only.
Output: 205 to 207 °C

Task: Answer with the recorded melting point of CCCN(CCC)[C@H]1Cc2c[nH]c3ccc(-c4cccnc4)c(c23)C1 only.
Output: 185 to 186 °C

Task: Answer with the recorded melting point of O=C(O)C(CC(=O)N1CCOCC1)NS(=O)(=O)c1ccc(-c2ccc(Cl)cc2)cc1 (stereo not given) only.
Output: 144 to 146 °C

Task: Answer with the recorded melting point of CNC(=O)c1ccc(F)c2c1CC(N(CCCCc1c[nH]c3ccc(F)cc13)C1CCC1)CO2 (stereo not given) only.
Output: 123 °C

Task: Answer with the recorded melting point of CCc1cc(NC(C)=O)cc(CC)n1 only.
Output: 74 to 78 °C

Task: Answer with the recorded melting point of O=C(O)CSC1c2cccc(O)c2C(=O)c2c(O)cccc21 only.
Output: 151 to 152 °C
